Reference source for all entries: ChEMBL document CHEMBL3988442

system: Wolbachia pipientis; test: Anti-Wolbachia Cell-Based Screen; type: functional; parameters: scale not given: in the data most compounds retested in dose-response had high values; conditions: 5 µM
The campaign covered roughly 48,000 compounds. About 13,000 (27%) showed an effect of 50% or more. Some of the results follow.
reported-endpoint: Percent Effect (%)

>>> df
                                   molecule  assay_result
0  CC(=O)N1CCC(C(=O)N2CCC(=Cc3cccc(F)c3)CC2)CC1        0.4533
1  Cc1nn(C)c(C)c1CN(Cc1cccn1-c1ncccn1)C(C)C        -15.44
2  CCN(CC(C)C#N)C(=O)CNc1cc(Cl)ccc1C(N)=O (stereo not given)         109.4
3          Cc1ccc2nc(CNCCCN3CCCC3)cc(O)c2c1        -3.941
4     CCN(C(=O)CNc1cc(C)c(F)cc1C(N)=O)C1CC1       -0.2217

---

system: Wolbachia pipientis; experiment: Anti-Wolbachia Cell-Based Screen; assay type: functional; set-up: scale not given: in the data most compounds retested in dose-response had high values; settings: 5 µM
Out of some 48,000 compounds screened, about 13,000 (27%) showed an effect of 50% or more. Some of the results follow.
reported-endpoint: Percent Effect (%)

                                    compound  assay_result
 0  CC(C)C(C)NC(=O)Nc1ccccc1CN1CCOCC1 (configuration not stated)         -2.62
 1  CN1C(=O)C2(CCN(C(=O)c3ccccc3)CC2)c2cc(F)ccc21.Cl        -1.303
 2  Cn1c(-c2ccccc2Cl)nc2cc(C(=O)NCC3(CO)CC3)cnc21         10.87
 3          O=C1OCCN1CCN1CCCN(Cc2ccccc2F)CC1          0.37
 4  CCS(=O)(=O)N1CCC2(CC1)CC(COC)N(c1ncccn1)C2.O=C(O)C(F)(F)F (configuration not stated)        -2.955
 5  COCC(=O)NC[C@]12COC[C@H]1CN(c1ncc(F)cn1)C2.O=C(O)C(F)(F)F        -9.196
 6  Cc1nn(CC(=O)N2CCCN(c3cccnn3)CC2)c(C)c1Cl         1.564
 7             CC(C)NC(=O)Nc1ccccc1CN1CCOCC1         8.436
 8  Cc1ccc(N2CCCN(C(=O)CC3CCCO3)CC2)nn1 (configuration not stated)         4.405
 9  CN1CC2(CCN(C(=O)c3cccnc3)CC2)c2cccc(F)c21.Cl         104.8
10  Cc1cccc(COC2COC3(CCN(S(C)(=O)=O)CC3)C2)n1.O=C(O)C(F)(F)F (configuration not stated)          2.01
11  Cc1ccc(NC2CCN(C(=O)CCC3CCCO3)CC2)nn1 (configuration not stated)        -9.533
12  Cc1cc(N2CCCC(O)(CN(C)C(=O)CCN)C2)c2cnccc2n1 (configuration not stated)         91.76
13  CN(C)C[C@]12COC[C@H]1CN(Cc1ccc3c(c1)OCO3)C2.O=C(O)C(F)(F)F.O=C(O)C(F)(F)F         103.2
14  CC(=O)N1CCN(Cc2ccc3c(c2)OCCO3)CC(O)C1 (configuration not stated)        -5.239
15         O=c1c(CN2CCOCC2)coc(O)c1CN1CCOCC1         110.9
16      CCn1cnnc1CNC(=O)N1CCN(CCc2ccccc2)CC1         119.3
17           O=c1c(CN2CCOCC2)coc2ccc(Cl)cc12         14.49
18  c1ccc(CCCN2CCCC(Nc3cnc4ccccc4n3)C2)cc1 (configuration not stated)         45.74
19  CN1C(=O)C2(CCN(C(=O)c3ccccc3)CC2)c2cccc(F)c21.Cl         2.069
20  CCN(C)C[C@@H]1CN(Cc2cnc3c(S(C)(=O)=O)cnn3c2)C[C@@H]1CO        -15.72
21       CCn1cnnc1CNC(=O)N1CCN(Cc2ccccc2)CC1         4.693
22  Cl.O=C(c1cccnc1)N1CCC2(CC1)CNc1c(F)cccc12         106.5
23        Cc1nnc([C@H]2CCN(CCCc3ccccc3)C2)o1        -2.923
24           O=c1c(CN2CCCCC2)coc2ccc(Cl)cc12        -1.352
25  COCCN1CCC2(CC1)CC(COC)N(c1ncccn1)C2.O=C(O)C(F)(F)F.O=C(O)C(F)(F)F (configuration not stated)         -10.3
26  CC(C)c1ccc(NC2CCCN(Cc3ccncc3)C2)cc1 (configuration not stated)        -12.89
